# SYSTEM_TESTED: Adenosine receptor A2a (Bos taurus)
# PROTOCOL_TEXT: biochemical
pKi: −log10 of the molar value.
OBSERVATION_TYPE: pKi

1. Cc1ccc2c(O)cc(-c3ccccc3F)nc2n1	6.33
2. Cc1ccc2c(O)cc(-c3ccccc3)nc2n1	6.34
3. Oc1cc(-c2ccccc2)nc2nc(F)ccc12	6.77

###

Readings of Selectivity for the listed compounds
# PROTOCOL_TEXT: Selectivity, ratio of affinity towards adenosine A3 to A1
OBSERVATION_TYPE: Selectivity

1) Cc1ccc2c(O)cc(-c3ccccc3F)nc2n1	418
2) Cc1ccc2c(O)cc(-c3ccccc3)nc2n1	1660
3) CCOc1ccc2c(O)cc(-c3ccccc3)nc2n1	> 1920
4) Oc1cc(-c2ccccc2)nc2nc(F)ccc12	> 2440
5) Cc1ccc2c(Cl)cc(-c3ccccc3)nc2n1	> 10

###

# Organism: Bos taurus
# PROTOCOL_TEXT: Selectivity, ratio of affinity towards adenosine A2A to A1
Listed here: items and their measured Selectivity.
OBSERVATION_TYPE: Selectivity

1) Cc1ccc2c(O)cc(-c3ccccc3F)nc2n1	43
2) Oc1cc(-c2ccccc2)nc2nc(F)ccc12	41
3) Cc1ccc2c(O)cc(-c3ccccc3)nc2n1	87

###

# SYSTEM_TESTED: Adenosine receptor A1 (Bos taurus, UniProt P28190)
# Sequence (P28190 whole entry): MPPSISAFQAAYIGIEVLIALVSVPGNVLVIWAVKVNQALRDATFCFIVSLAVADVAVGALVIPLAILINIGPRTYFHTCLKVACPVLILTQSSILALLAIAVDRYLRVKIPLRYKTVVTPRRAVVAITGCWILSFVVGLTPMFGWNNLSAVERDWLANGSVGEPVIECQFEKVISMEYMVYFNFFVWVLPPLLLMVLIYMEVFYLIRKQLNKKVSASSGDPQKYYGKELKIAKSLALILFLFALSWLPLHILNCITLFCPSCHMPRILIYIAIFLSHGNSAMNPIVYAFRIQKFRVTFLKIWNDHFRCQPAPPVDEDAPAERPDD
# PROTOCOL_TEXT: biochemical
pKi: −log10 of the molar value.
Classify as follows. Reported pKi greater than or equal to 7: Satisfied. Reported pKi below: Not satisfied.

1. Cc1ccc2c(O)cc(-c3ccc([N+](=O)[O-])cc3)nc2n1	Satisfied
2. COc1ccc2c(O)cc(-c3ccccc3)nc2n1	Satisfied
3. COc1cc(-c2ccccc2)nc2c1ccc(=O)n2C	Not satisfied
4. Cc1ccc2c(O)cc(-c3ccccc3F)nc2n1	Satisfied
5. Cc1ccc2c(N3CCNCC3)cc(-c3ccccc3)nc2n1	Not satisfied
6. Oc1cc(-c2ccccc2)nc2nc(Oc3ccccc3)ccc12	Satisfied
7. O=c1ccc2c(O)cc(-c3ccccc3)nc2[nH]1	Not satisfied
8. Oc1cc(-c2ccccc2)nc2nc(Cl)ccc12	Satisfied
9. CCn1c(-c2ccccc2)cc(=O)c2ccc(C)nc21	Not satisfied
10. Cn1c(=O)ccc2c(O)cc(-c3ccccc3)nc21	Not satisfied
11. Cc1ccc2ccc(-c3ccccc3)nc2n1	Not satisfied
12. Nc1ccc2c(O)cc(-c3ccccc3)nc2n1	Satisfied
13. Cc1ccc2c(N=[N+]=[N-])cc(-c3ccccc3)nc2n1	Not satisfied
14. Cc1ccc2c(N)cc(-c3ccccc3)nc2n1	Satisfied
15. Cc1ccc2c(O)cc(-c3ccc(F)cc3)nc2n1	Satisfied
16. Oc1cc(-c2ccccc2)nc2nc(Br)ccc12	Satisfied
17. Oc1cc(-c2ccccc2)nc2nc(F)ccc12	Satisfied
18. OC[C@H]1O[C@@H](n2cnc3c(NC4CCCCC4)ncnc32)[C@H](O)[C@@H]1O	Satisfied
19. Cc1ccc2c(NC3CCCCC3)cc(-c3ccccc3)nc2n1	Satisfied
20. Cc1ccc2c(O)cc(-c3ccccc3)nc2n1	Satisfied
21. CCCn1c(=O)c2[nH]c(-c3ccc(OCC(=O)NCCN)cc3)nc2n(CCC)c1=O	Satisfied
22. Oc1cc(-c2ccccc2)nc2ncccc12	Satisfied
23. CCOc1ccc2c(O)cc(-c3ccccc3)nc2n1	Satisfied
24. CCOC(=O)N1CCN(c2cc(-c3ccccc3)nc3nc(C)ccc23)CC1	Not satisfied
25. COc1cc(-c2ccccc2)nc2nc(C)ccc12	Not satisfied
26. Cc1ccc2c(N(C)C)cc(-c3ccccc3)nc2n1	Not satisfied
